# assay-system: alpha or beta in vitro estradiol receptors
# assay-name: competitive radio-ligand binding assay, statements that do not separate alpha and beta
# cond: alpha or beta receptor not separated; highest concentration tested 2.5×E-4 M
pIC50: −log10 of the molar value.
assay-metric: pIC50

Record `Oc1ccccc1` . Reported pIC50: ≤ 3.60

From: patent US9688816B2
